Listing of recorded binding signal by entry.
# System: hSSB1 (Homo sapiens, UniProt Q9BQ15 Q9BQ15:1-211)
# Sequence (Q9BQ15 whole entry, one chain of several): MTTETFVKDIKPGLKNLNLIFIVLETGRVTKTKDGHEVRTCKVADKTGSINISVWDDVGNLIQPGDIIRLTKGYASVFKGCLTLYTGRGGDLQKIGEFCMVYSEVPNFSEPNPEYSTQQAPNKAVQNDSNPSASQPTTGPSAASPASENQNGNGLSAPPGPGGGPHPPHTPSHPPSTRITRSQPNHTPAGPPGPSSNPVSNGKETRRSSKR
# Assay Details: SPR; LSA_In3E3 = 1
Provide the reading as a plain figure in normalized Rmax.

{"Binder": "GUGAGCCGGACUUG (ssRNA, 2'-OMe all, PS all) [In3E3 both-end truncation 14 nt]", "Unit Symbol": "normalized Rmax", "binding signal": 0.45}

For record CAGAGGCAGCAGUACGACGG (ssRNA, PS all, no sugar modification) [LSA_ATG PS only (DKLS577569)] the listed binding signal is 1.44

For record CCGGACUUGCCU (ssRNA, 2'-OMe all, PS all) [In3E3 5' truncation 12 nt] the listed binding signal is 0.13

For record CCGGUGAGCGACACUAGGCU (ssRNA, 2'-OMe all, PS all) [In3LSA_scr3_4] the listed binding signal is 0.77
